Reported IC50 values follow for various compounds
# measured_target: Recombinant JAK3 (Amino acids 781-1124) (Homo sapiens)
# Construct: JAK3 (Amino acids 781-1124; NM_000215.3)
# Sequence (P52333 781-1124): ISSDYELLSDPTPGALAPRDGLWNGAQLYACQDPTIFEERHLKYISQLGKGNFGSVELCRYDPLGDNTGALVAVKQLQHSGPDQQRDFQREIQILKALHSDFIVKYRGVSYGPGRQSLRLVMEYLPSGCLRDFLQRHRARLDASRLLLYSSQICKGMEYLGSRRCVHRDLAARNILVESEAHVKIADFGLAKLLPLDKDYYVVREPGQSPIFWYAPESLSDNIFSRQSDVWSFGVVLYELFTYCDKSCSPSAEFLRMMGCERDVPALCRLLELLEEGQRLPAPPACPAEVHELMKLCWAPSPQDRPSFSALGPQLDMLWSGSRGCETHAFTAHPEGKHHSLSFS
# assay_procedure: Kinase-Glo Luminescent Kinase Assay, recombinant JAK3
# conditions_used: 200 μg/ml Poly Glu-Tyr (4:1), ATP 1 uM, 90 min room temperature, luminescence

compound | recorded_metric | experimental_value
c1cc(N2CCC(OCC3CC3)C2)c2c(cnc3[nH]ccc32)n1 (stereo not drawn) | IC50 | 1 to 20 nM

Lookup result for CC(C)C(=O)NC1CCN(c2ccnc3cnc4[nH]ccc4c23)C1 (stereo not drawn) ; measured IC50: > 20 nM

Lookup result for c1cc(N2CCOCC2)c2c(cnc3[nH]ccc32)n1 ; measured IC50: > 20 nM

Lookup result for N#CCS(=O)(=O)N1CCN(c2ccnc3cnc4[nH]ccc4c23)CC1 ; measured IC50: > 20 nM

Lookup result for CC(C)CS(=O)(=O)N1CCCC(c2ccnc3cnc4[nH]ccc4c23)C1 (stereo not drawn) ; measured IC50: 1 to 20 nM

Lookup result for O=C(CC1CC1)N1CCCC(c2ncnc3cnc4[nH]ccc4c23)C1 (stereo not drawn) ; measured IC50: > 20 nM

Lookup result for CC(C)/C(=N\C#N)N1CCC[C@H](c2ccnc3cnc4[nH]ccc4c23)C1 [Ex. 43A] ; measured IC50: > 20 nM

Lookup result for O=C(NC1CC1)C1CCN(c2ccnc3cnc4[nH]ccc4c23)CC1 ; measured IC50: > 20 nM

Lookup result for O=C(CC(F)(F)F)N1CCC[C@@H](c2ccnc3cnc4[nH]ccc4c23)C1 ; measured IC50: > 20 nM

Lookup result for N#CCC(=O)N1CCCC(c2ncnc3cnc4[nH]ccc4c23)C1 (stereo not drawn) ; measured IC50: 1 to 20 nM

Lookup result for O=C(C1CC1)N1CCCC(c2ncnc3cnc4[nH]ccc4c23)C1 (stereo not drawn) ; measured IC50: > 20 nM

Lookup result for CC(C)(C)OC(=O)N1CCC(c2ccnc3cnc4[nH]ccc4c23)C1 (stereo not drawn) ; measured IC50: > 20 nM

Lookup result for O=C(NC1CC1)C1CCCN(c2ccnc3cnc4[nH]ccc4c23)C1 (stereo not drawn) ; measured IC50: > 20 nM

Lookup result for CC(C)(C)OC(=O)N1CCCC(c2ccnc3cnc4[nH]ccc4c23)C1 (stereo not drawn) ; measured IC50: 1 to 20 nM

Lookup result for CC(C)CS(=O)(=O)N1CCCC(c2ncnc3cnc4[nH]ccc4c23)C1 (stereo not drawn) ; measured IC50: > 20 nM

====

# measured_target: Recombinant JAK2 (Amino acids 808-1132) (Homo sapiens)
# Construct: JAK2 (Amino acids 808-1132; NM_004972.3)
# Sequence (O60674 808-1132): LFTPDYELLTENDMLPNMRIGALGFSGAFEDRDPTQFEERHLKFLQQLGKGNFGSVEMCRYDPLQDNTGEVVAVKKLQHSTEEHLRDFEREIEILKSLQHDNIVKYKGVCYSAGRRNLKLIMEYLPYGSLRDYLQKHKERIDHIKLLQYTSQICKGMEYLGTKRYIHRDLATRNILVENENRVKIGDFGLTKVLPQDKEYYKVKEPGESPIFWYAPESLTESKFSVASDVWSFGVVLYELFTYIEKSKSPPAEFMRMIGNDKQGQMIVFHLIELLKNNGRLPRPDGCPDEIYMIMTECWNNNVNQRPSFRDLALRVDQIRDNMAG
# assay_procedure: Kinase-Glo Luminescent Kinase Assay, recombinant JAK2
# conditions_used: 200 μg/ml Poly Glu-Tyr (4:1), ATP 1 uM, 90 min room temperature, luminescence
# Procedure: Recombinant JAK1 (Amino acids 850-1154; NM_002227.2), JAK2 (Amino acids 808-1132; NM_004972.3) and JAK3 (Amino acids 781-1124; NM_000215.3) used in the studies were expressed using Invitrogen's Bac-to-Bac baculovirus expression system according to manufacturer's instructions. Adenosine 5′-triphosphate was obtained from Sigma Aldrich chemicals (Cat # A7699). […] The reactions were stopped by adding 5 μl of Kinase Glo® reagent & 10 μl of reaction mixture followed by measuring luminescence. […]
Reported IC50 values follow for various compounds

For orientation, consider the following solved cases.
compound | measured_target | IC50
CC(C)C(=O)N1CCCC(c2ncnc3cnc4[nH]ccc4c23)C1 (stereo not drawn) | Recombinant JAK2 (Amino acids 808-1132) (Homo sapiens) | > 20 nM
CN(C(=O)CC(F)(F)F)C1CCCN(c2ccnc3cnc4[nH]ccc4c23)C1 (stereo not drawn) | Recombinant JAK2 (Amino acids 808-1132) (Homo sapiens) | > 20 nM
N#CCC(=O)N1CCC[C@H](c2ncnc3cnc4[nH]ccc4c23)C1 [Ex. 23B] | Recombinant JAK2 (Amino acids 808-1132) (Homo sapiens) | 1 to 20 nM
O=C(CC(F)(F)F)N1CCC[C@@H](c2ncnc3cnc4[nH]ccc4c23)C1 [Ex. 24A] | Recombinant JAK2 (Amino acids 808-1132) (Homo sapiens) | > 20 nM
N#CCS(=O)(=O)N1CCN(c2ccnc3cnc4[nH]ccc4c23)CC1 | Recombinant JAK2 (Amino acids 808-1132) (Homo sapiens) | > 20 nM

// next entry
Lookup result for O=C(OCC(F)(F)F)N1CCCC(c2ccnc3cnc4[nH]ccc4c23)C1 (stereo not drawn) ; measured IC50: 1 to 20 nM
